meta.source: the RNAGym collection of RNA variant scans (doi:10.7554/elife.90254)

B1: LINE1-full (parent)
chain: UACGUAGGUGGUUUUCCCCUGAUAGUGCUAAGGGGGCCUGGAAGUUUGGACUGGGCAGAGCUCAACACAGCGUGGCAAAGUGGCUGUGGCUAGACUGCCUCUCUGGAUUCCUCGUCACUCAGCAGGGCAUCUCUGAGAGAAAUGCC

Variants of: B1
Test Details: self-cleavage, relative activity (ratio to wild type); higher = more cleavage; in vitro, sequencing; the parent is a self-cleaving ribozyme
Exercise: state measured self-cleavage for each of the variants provided.
Numbers only.

Reference set (3 entries):
mutant_name="G21A U104A" quantity=self-cleavage recorded_value=1.27
mutant_name="G88C G105A" quantity=self-cleavage recorded_value=0.06
mutant_name="U15C U20G" quantity=self-cleavage recorded_value=0.52

For each of the items listed, what is its self-cleavage?
1. U112A A142C
2. A92G U130C
3. A24C A64G
4. U52A U85G

**A:**
1.46
0.11
0.64
0.22

For each of the items listed, what is its self-cleavage?
1. A24G U29C
2. C19U A136G
3. G36U A107G

**A:**
1.41
0.95
0.9

**Q:** Quick one: self-cleavage for U14A A64U ?
**A:** 0.48
